tested on: heparin-induced aggregated tau (aTau), full-length 2N4R human Tau (Homo sapiens, UniProt P10636)
Construct: transformed with a full-length 2N4R tau expression plasmid; made in house; host or cells: E. coli BL21
Sequence (P10636 1-441 isoform P10636-8): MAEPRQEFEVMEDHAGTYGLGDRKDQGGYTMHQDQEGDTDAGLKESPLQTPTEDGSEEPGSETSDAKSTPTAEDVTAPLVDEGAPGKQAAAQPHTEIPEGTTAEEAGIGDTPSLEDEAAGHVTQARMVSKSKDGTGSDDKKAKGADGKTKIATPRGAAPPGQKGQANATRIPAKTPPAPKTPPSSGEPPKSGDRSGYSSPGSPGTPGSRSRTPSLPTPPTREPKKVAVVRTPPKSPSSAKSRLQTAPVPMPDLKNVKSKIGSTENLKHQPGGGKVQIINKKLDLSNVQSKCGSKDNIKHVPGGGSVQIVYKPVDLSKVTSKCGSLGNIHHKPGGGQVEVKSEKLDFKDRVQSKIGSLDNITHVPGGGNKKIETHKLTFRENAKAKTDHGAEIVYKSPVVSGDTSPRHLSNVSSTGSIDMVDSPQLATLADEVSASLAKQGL
assay notes: PBB5 competition assay
Format: binding
conditions: 0.12 μM aTau, 0.1 μM PBB5, compound up to 10 μM; read-out: Competition Assay with PBB5: Bmax (%)
Below, each entry is listed alongside its reported Emax.
observable: Emax

INSERT INTO measurements (molecule, measurement) VALUES
  ('CN(C)c1ccc2nc(-c3ccc(-c4ccc(NCCOCCOCCOCCOCCOCCOc5ccc6c(c5)CN(C5CCC(=O)NC5=O)C6=O)nc4)cc3)sc2c1 (stereo not drawn) [Compound 160383]', '80%'),
  ('CN(C)c1ccc(-c2ccc(-c3nc4ccc(NCCOCCOc5ccc6c(c5)C(=O)N(C5CCC(=O)NC5=O)C6=O)cc4s3)cc2)cn1 (stereo not drawn) [Compound 160219]', '69%'),
  ('CN(C)c1ccc2nc(-c3ccc(-c4ccc(NCCOCCOCCOCCOCCOCCOc5ccc6c(c5)C(=O)N(C5CCC(=O)NC5=O)C6=O)nc4)cc3)sc2c1 (stereo not drawn) [Compound 160275]', '96%');

====

tested on: heparin-induced aggregated tau (aTau), full-length 2N4R human Tau (Homo sapiens)
Construct: transformed with a full-length 2N4R tau expression plasmid
assay notes: In vitro fluorometric aTau binding assay
conditions: 0.04 μM aTau, serially diluted compound 10 to 0.00017 μM, 37° C. 1 hour, fluorescence
pKd: −log10 of the molar value.
# pKd listing for each entry below
observable: pKd

INSERT INTO measurements (compound, observable, measurement) VALUES
  ('CN(C)c1ccc(-c2ccc(-c3nc4ccc(NCCOCCOc5ccc6c(c5)C(=O)N(C5CCC(=O)NC5=O)C6=O)cc4s3)cc2)cn1 (stereo not drawn) [Compound 160219]', 'pKd', 6.96),
  ('CN(C)c1ccc2nc(-c3ccc(-c4ccc(NCCOCCOCCOCCOCCOCCOc5ccc6c(c5)CN(C5CCC(=O)NC5=O)C6=O)nc4)cc3)sc2c1 (stereo not drawn) [Compound 160383]', 'pKd', 6.26),
  ('CN(C)c1ccc(-c2ccc(-c3nc4ccc(NCCOCCOCCOCCOCCOCCOc5ccc6c(c5)CN(C5CCC(=O)NC5=O)C6=O)cc4s3)cc2)cn1 (stereo not drawn) [Compound 160273]', 'pKd', 6.33);
